target: T1, human folate receptor beta (FRβ), recombinant, C-terminal 6xHis (human, UniProt P14207 17-230, limits assumed); test: direct ELISA, plates coated with 1 µg/mL FR isoform, dilution series of culture supernatant
T1 construct: Transiently expressed in 293F cells and purified; coated on ELISA plates
T1 sequence (P14207 other isoform, or with tags, fused parts or gaps limits assumed): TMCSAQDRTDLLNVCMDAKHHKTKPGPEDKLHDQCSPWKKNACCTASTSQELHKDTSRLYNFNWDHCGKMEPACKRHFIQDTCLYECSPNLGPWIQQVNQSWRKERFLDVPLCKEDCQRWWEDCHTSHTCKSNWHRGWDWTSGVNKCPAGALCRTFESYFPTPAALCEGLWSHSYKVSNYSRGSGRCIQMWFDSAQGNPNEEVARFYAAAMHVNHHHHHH
experimental.endpoint: binding result

Example entries and their recorded answers appear below.
>  <binder>
Monoclonal antibody 24H8.D3 (antibody, mouse IgG1, V domains shown, Biotin-conjugated when used as capture antibody in the ECL assay; also called ATCC PTA-123090) VH: QVQLKESGPGLVAPSQSLSITCTVSGFSLTSYGVSWVRQPPGKGLEWLGVIWGDGSTNYHSTLISRLSISKDNSKSQVFLKLNSLQTDDTATYYCAKPHPAATGAMDYWGQGTSVTVSS VL: DIQMTQTTSSLSASLGDRVTISCRASQDISNHLNWYQQKPDGTIKLLIYYTSKLHSGVPSRFSGSGSGTDYSLTISNLEQEDIATYFCQQGNTLWTFGGGTKLEIK

>  <result>
no binding

$$$$
>  <binder>
Monoclonal antibody 1D2.D8.G10 (antibody, mouse IgG1, V domains shown, Murine IgG1 kappa from hybridoma; also called 1D2.D8.G0; ATCC PTA-123098) VH: QSGTVLARPGASVKMSCKASGYSFTSNWMHWIKQRPGQGLEWIGAIYPGNSDTSYNQKFKGKAKLTAVTSASTAYMELSSLTNEDSAVYHCTRGDGSSFWYFDVWGAGTTVTVSS VL: QSPASLVVSLGQRATISCRASKSVSTSGYSYMYWYQQKSGQPPKLLIYLASNLESGVPARFSGGGSGTDFTLNIHPVEEEDAATYYCQQSRELPPTFGGGTKLEIK

>  <result>
no binding

$$$$
>  <binder>
Monoclonal antibody 6A2.G7 (antibody, mouse IgG1, V domains shown, Murine IgG1 kappa from hybridoma; also called ATCC PTA-123093) VH: GADLVKPGASVKMSCKASGYTFSRYNMHWVKQTPGQGLEWIGTIYPGNGDTSYNEKFKGKATLTADKSSSIVYMQVSSLTSEASAVYYCARDYGSRYALDYWGQGTSVTVSS VL: SSLSASLGDRVTISCRASQDISNYLNWYQQKPDGTVKLLIYYTSRLHSGVPSRFSGSGSGTDYSLTISNLEQEDIATYFCQQGNTLPYTFGGGTKLEIK

>  <result>
no binding

$$$$
>  <binder>
Monoclonal antibody 1A8.G11.E7 (antibody, mouse IgG1, V domains shown, Murine IgG1 kappa from hybridoma; also called ATCC PTA-123100) VH: ESGPGLVAPSQSLSITCTVSGFSLTSYGVSWVRQPPGKGLEWLGVIWGDGSTNYHSTLISRLSISKDNSKSQVFLKLNSLQTDDTATYYCAKPHPAATGAMDYWGQGTSVTVSS VL: TQTTSSLSASLGDRVTISCRASQDISNHLNWYQQKPDGTVKLLIYYTSRLHSGVPSRFSGSGSGTDYSLTISNLEQEDIATYFCQQGNTLWTFGGGTKLEIK

>  <result>
no binding

$$$$
>  <binder>
Monoclonal antibody 24H8.F3 (antibody, mouse IgG1, V domains shown, Murine IgG1 kappa from hybridoma; also called ATCC PTA-123097) VH: GPGLVAPSQSLSITCTVSGFSLTSYGVSWVRQPPGKGLEWLGVIWGDGSTNYHSTLISRLSISKDNSKSQVFLKLNSLQTDDTATYYCAKPHPAATGAMDYWGQGTSVTVSS VL: TTSSLSASLGDRVTISCRASQDISNHLNWYQQKPDGTIKLLIYYTSKLHSGVPSRFSGSGSGTDYSLTISNLEQEDIATYFCQQGNTLWTFGGGTKLEIK

>  <result>
no binding

$$$$

Name the recorded binding result of the item Monoclonal antibody 1C6.E12.G8 (antibody, mouse IgG1, V domains shown, Murine IgG1 kappa from hybridoma; also called ATCC PTA-123091) VH: SGARELVKPGASVKLSCKTSGFTFNSSYITWLKQKPGQSLEWIAWIYAGNGGTTYNQKFTGKAQLTVDTSSSTAYMQFSSLTTEDSAIYYCASETYTNYWYFDVWGSGTTVTVSS VL: QSPASLSASVGETVTITCRASGNIHNYLAWYQQKQGKSPQLLVYNAKTLADGVPSRFSGSGSGTQYSLKINSLQPEDFGSYYCQHFWSTPYTFGGGTKLEIK in your answer.
no binding

Name the recorded binding result of the item Monoclonal antibody 26A9.C4 (antibody, mouse IgG1, V domains shown, Murine IgG1 kappa from hybridoma; also called ATCC PTA-123092) VH: SGARELVKPGASVKLSCKTSGFTFSSSFISWLKQKPGQSLEWIAWIYGGNGGTSYNQNFTGKAQLTVDTSSSTAYMQFSSLTTEDSAVYYCASETYGNYWYFDVWGAGTTVTVSS VL: QSPASLSASVGDTVTITCRASGNIHNYLAWYQQKQGKSPQLLVYNAKTLADGVPSRFSGSGSGTQYSLKINSLQPEDFGNYYCQHFWSTPYTFGGGTKLEIK in your answer.
no binding

Entry source: patent US20180148504A1
